Measured melting point by item

Study these solved cases before continuing.
Cc1oc(-c2ccccc2)nc1COc1ccc(S(=O)(=O)Nc2ccccc2C(=O)O)cc1 195 to 198 °C
O=C(NCCc1ccc(F)cc1)c1ccc(S(=O)(=O)Nc2ccccc2C(=O)O)cc1 85 to 86 °C
CC(=O)Nc1ccc(NS(=O)(=O)c2ccc(OCc3nc(-c4ccccc4)oc3C)cc2)c(C(=O)O)c1 89 to 90 °C

Return reported melting point. Input compound: Cc1oc(-c2ccccc2)nc1COc1ccc(COc2cc(C(F)(F)F)cc(C(F)(F)F)c2C(=O)O)cc1
190 to 191 °C

Return reported melting point. Input compound: Cc1cc(OC(C)C)cc(OCc2ccc(OCCc3nc(-c4ccccc4)oc3C)cc2)c1C(=O)O
157 to 158 °C

Return reported melting point. Input compound: Cc1oc(-c2ccccc2)nc1COc1ccc(S(=O)(=O)Nc2cccc(Cl)c2C(=O)O)cc1
170 to 172 °C

Data origin: patent US7700637B2
